The measurements presented in this section are drawn from ChEMBL document CHEMBL1156308.

assay: Biodistribution in baboon gallbladder at 170 mg, iv after 90 mins; format: ADME, organism-based, Gall bladder; settings: papio hamadryas, read-out: Drug uptake
value-kind: concentration at 1.5 h (µg/mL)

>>> readout_number("CO[C@H]1/C=C/O[C@@]2(C)Oc3c(C)c(O)c4cc(c(/C=N/N5CCN([11CH3])CC5)c(O)c4c3C2=O)NC(=O)/C(C)=C\\C=C\\C(C)[C@H](O)[C@@H](C)[C@@H](O)[C@@H](C)[C@H](OC(C)=O)[C@@H]1C (stereo partly specified)")
1010

* * *

test: Biodistribution in baboon Liver at 170 mg, iv after 15 mins; type: ADME, organism-based; details: papio hamadryas, read-out: Drug uptake
value-kind: concentration at 0.25 h (µg/mL)

>>> readout_number("CO[C@H]1/C=C/O[C@@]2(C)Oc3c(C)c(O)c4cc(c(/C=N/N5CCN([11CH3])CC5)c(O)c4c3C2=O)NC(=O)/C(C)=C\\C=C\\C(C)[C@H](O)[C@@H](C)[C@@H](O)[C@@H](C)[C@H](OC(C)=O)[C@@H]1C (stereo partly specified)")
259

* * *

assay: Biodistribution in baboon kidney cortex at 340 mg, iv after 30 mins; assay type: ADME, organism-based; conditions: papio hamadryas, read-out: Drug uptake
value-kind: concentration at 0.5 h (ng/mL)

>>> readout_number("N[11C](=O)c1cnccn1")
16600

* * *

assay: Biodistribution in baboon kidney cortex at 85 mg, iv after 15 mins; assay type: ADME, organism-based; conditions: papio hamadryas, read-out: Drug uptake
value-kind: concentration at 0.25 h (ng/mL)

>>> readout_number("NN[11C](=O)c1ccncc1")
15100

* * *

experiment: Biodistribution in baboon kidney medulla at 85 mg, iv after 90 mins; assay type: ADME, organism-based; conditions: papio hamadryas, read-out: Drug uptake
value-kind: concentration at 1.5 h (ng/mL)

>>> readout_number("NN[11C](=O)c1ccncc1")
14700

* * *

assay: Biodistribution in baboon plasma at 170 mg, iv after 60 mins; assay type: ADME, organism-based; details: papio hamadryas, read-out: Drug uptake
value-kind: concentration at 1 h (ng/mL)

>>> readout_number("CO[C@H]1/C=C/O[C@@]2(C)Oc3c(C)c(O)c4cc(c(/C=N/N5CCN([11CH3])CC5)c(O)c4c3C2=O)NC(=O)/C(C)=C\\C=C\\C(C)[C@H](O)[C@@H](C)[C@@H](O)[C@@H](C)[C@H](OC(C)=O)[C@@H]1C (stereo partly specified)")
1140

* * *

assay: Biodistribution in baboon heart at 85 mg, iv after 15 mins; format: ADME, organism-based; conditions: papio hamadryas, read-out: Drug uptake
value-kind: concentration at 0.25 h (ng/mL)

>>> readout_number("NN[11C](=O)c1ccncc1")
8720

* * *

test: Biodistribution in baboon plasma at 340 mg, iv after 60 mins; type: ADME, organism-based; details: papio hamadryas, read-out: Drug uptake
value-kind: concentration at 1 h

>>> result("N[11C](=O)c1cnccn1")
"11200 ng/mL"

* * *

experiment: Biodistribution in baboon kidney medulla at 170 mg, iv after 60 mins; assay type: ADME, organism-based; conditions: papio hamadryas, read-out: Drug uptake
value-kind: concentration at 1 h (ng/mL)

>>> readout_number("CO[C@H]1/C=C/O[C@@]2(C)Oc3c(C)c(O)c4cc(c(/C=N/N5CCN([11CH3])CC5)c(O)c4c3C2=O)NC(=O)/C(C)=C\\C=C\\C(C)[C@H](O)[C@@H](C)[C@@H](O)[C@@H](C)[C@H](OC(C)=O)[C@@H]1C (stereo partly specified)")
6730

* * *

experiment: Biodistribution in mouse whole brain at 10 mg/kg, sc after 60 mins; format: ADME, organism-based; parameters: dose 10 mg/kg, route subcutaneous; settings: read-out: Drug uptake
value-kind: concentration at 1 h (ng/g)

>>> readout_number("NN[14C](=O)c1ccncc1")
3200

* * *

test: Biodistribution in baboon plasma at 85 mg, iv after 60 mins; assay type: ADME, organism-based; settings: papio hamadryas, read-out: Drug uptake
value-kind: concentration at 1 h (ng/mL)

>>> readout_number("NN[11C](=O)c1ccncc1")
2050

* * *

experiment: Biodistribution in baboon kidney medulla at 85 mg, iv after 15 mins; assay type: ADME, organism-based; settings: papio hamadryas, read-out: Drug uptake
value-kind: concentration at 0.25 h (ng/mL)

>>> readout_number("NN[11C](=O)c1ccncc1")
18900

* * *

assay: Biodistribution in baboon liver at 85 mg, iv after 60 mins; type: ADME, organism-based; details: papio hamadryas, read-out: Drug uptake
value-kind: concentration at 1 h

>>> result("NN[11C](=O)c1ccncc1")
"7640 ng/mL"

* * *

test: Biodistribution in baboon lung at 170 mg, iv after 30 mins; type: ADME, organism-based; conditions: papio hamadryas, read-out: Drug uptake
value-kind: concentration at 0.5 h (ng/mL)

>>> readout_number("CO[C@H]1/C=C/O[C@@]2(C)Oc3c(C)c(O)c4cc(c(/C=N/N5CCN([11CH3])CC5)c(O)c4c3C2=O)NC(=O)/C(C)=C\\C=C\\C(C)[C@H](O)[C@@H](C)[C@@H](O)[C@@H](C)[C@H](OC(C)=O)[C@@H]1C (stereo partly specified)")
2830

* * *

test: Biodistribution in baboon heart at 170 mg, iv after 15 mins; assay type: ADME, organism-based; settings: papio hamadryas, read-out: Drug uptake
value-kind: concentration at 0.25 h (ng/mL)

>>> readout_number("CO[C@H]1/C=C/O[C@@]2(C)Oc3c(C)c(O)c4cc(c(/C=N/N5CCN([11CH3])CC5)c(O)c4c3C2=O)NC(=O)/C(C)=C\\C=C\\C(C)[C@H](O)[C@@H](C)[C@@H](O)[C@@H](C)[C@H](OC(C)=O)[C@@H]1C (stereo partly specified)")
7280

* * *

assay: Biodistribution in baboon kidney cortex at 340 mg, iv after 15 mins; assay type: ADME, organism-based; conditions: papio hamadryas, read-out: Drug uptake
value-kind: concentration at 0.25 h (ng/mL)

>>> readout_number("N[11C](=O)c1cnccn1")
20500

* * *

test: Biodistribution in baboon lung at 85 mg, iv after 30 mins; type: ADME, organism-based; settings: papio hamadryas, read-out: Drug uptake
value-kind: concentration at 0.5 h

>>> result("NN[11C](=O)c1ccncc1")
"6090 ng/mL"

* * *

test: Biodistribution in baboon plasma at 170 mg, iv after 30 mins; assay type: ADME, organism-based; conditions: papio hamadryas, read-out: Drug uptake
value-kind: concentration at 0.5 h (ng/mL)

>>> readout_number("CO[C@H]1/C=C/O[C@@]2(C)Oc3c(C)c(O)c4cc(c(/C=N/N5CCN([11CH3])CC5)c(O)c4c3C2=O)NC(=O)/C(C)=C\\C=C\\C(C)[C@H](O)[C@@H](C)[C@@H](O)[C@@H](C)[C@H](OC(C)=O)[C@@H]1C (stereo partly specified)")
1500

* * *

experiment: Biodistribution in baboon plasma at 85 mg, iv after 15 mins; type: ADME, organism-based; details: papio hamadryas, read-out: Drug uptake
value-kind: concentration at 0.25 h

>>> result("NN[11C](=O)c1ccncc1")
"3760 ng/mL"

* * *

experiment: Biodistribution in baboon liver at 85 mg, iv after 30 mins; format: ADME, organism-based; conditions: papio hamadryas, read-out: Drug uptake
value-kind: concentration at 0.5 h (ng/mL)

>>> readout_number("NN[11C](=O)c1ccncc1")
9710

* * *

assay: Biodistribution in baboon plasma at 85 mg, iv after 90 mins; assay type: ADME, organism-based; settings: papio hamadryas, read-out: Drug uptake
value-kind: concentration at 1.5 h (ng/mL)

>>> readout_number("NN[11C](=O)c1ccncc1")
1620

* * *

assay: Biodistribution in baboon plasma at 85 mg, iv after 30 mins; assay type: ADME, organism-based; conditions: papio hamadryas, read-out: Drug uptake
value-kind: concentration at 0.5 h (µg/mL)

>>> readout_number("NN[11C](=O)c1ccncc1")
2.96

* * *

experiment: Biodistribution in baboon gallbladder at 170 mg, iv after 60 mins; assay type: ADME, organism-based, Gall bladder; settings: papio hamadryas, read-out: Drug uptake
value-kind: concentration at 1 h (µg/mL)

>>> readout_number("CO[C@H]1/C=C/O[C@@]2(C)Oc3c(C)c(O)c4cc(c(/C=N/N5CCN([11CH3])CC5)c(O)c4c3C2=O)NC(=O)/C(C)=C\\C=C\\C(C)[C@H](O)[C@@H](C)[C@@H](O)[C@@H](C)[C@H](OC(C)=O)[C@@H]1C (stereo partly specified)")
983

* * *

test: Biodistribution in baboon liver at 340 mg, iv after 15 mins; assay type: ADME, organism-based; settings: papio hamadryas, read-out: Drug uptake
value-kind: concentration at 0.25 h (ng/mL)

>>> readout_number("N[11C](=O)c1cnccn1")
36100

* * *

assay: Biodistribution in baboon plasma at 340 mg, iv after 30 mins; format: ADME, organism-based; details: papio hamadryas, read-out: Drug uptake
value-kind: concentration at 0.5 h (ng/mL)

>>> readout_number("N[11C](=O)c1cnccn1")
14600
